Hi there, I'd appreciate the recorded IC50 for every entry that follows.
biological target: His-TEV-DYRK1A Kinase domain (aa127-485) (Homo sapiens); construct: His-TEV-DYRK1A Kinase domain (aa127-485); His tag (N); TEV protease cleavage site (N); assay: Kinase ADP assay (ADP Hunter), DYRK1A kinase domain; assay type: biochemical; details: 20 μM ATP
Numbers only, in µM.

[[record]]
molecule = "Cc1nc2ccc(-c3cc(N)nc(N)c3)nc2n1CCc1ccc(Cl)cc1Cl [Example 59]"
value_observed = 0.021

[[record]]
molecule = "C=CCCn1c(C)nc2ccc(-c3ccnc(N)c3)nc21 [Example 239]"
value_observed = 0.068

[[record]]
molecule = "Cc1nc2ccc(-c3cc(N)nc(N)c3)nc2n1CC1CC1c1ccccc1 (stereo not shown) [Example 97]"
value_observed = 0.015


input: Report IC50 for Cc1nc2ccc(-c3cc(N)nc(N)c3)nc2n1CC(C)C [Example 31] please.
output: 0.01

* * *

biological target: DYRK1A (Homo sapiens); experiment: Kinase TR-FRET assay, DYRK1A; format: biochemical; design: full-length, wild-type human DYRK1A (NM_001396) with an HA tag; expressed in transfected cells; host or cells: human U2-OS osteosarcoma cells, transient transfection of a pcDNA3.1 plasmid; conditions: full-length human kinase, 10 μM ATP
Hi there, I'd appreciate the recorded IC50 for every entry that follows.
Give bare numbers, in µM.

[[record]]
compound = "CCCCn1c(C)nc2ccc(-c3cc(N)nc(NC(=O)COc4ccccc4)c3)nc21"
value_observed = 0.221

[[record]]
compound = "Cc1nc2ccc(-c3cc(N)nc(N)c3)nc2n1CCC1CCCCC1"
value_observed = 0.004


For every item below, please supply its IC50.
1. Cc1nc2ccc(-c3cc(N)nc(N)c3)nc2n1C1CCCc2ccccc21 (centres unmarked)
2. CCc1nc2ccc(-c3cc(N)nc(N)c3)nc2n1C1CCCC1

output:
1: 0.166; 2: 0.013

For every item below, please supply its IC50.
1. Cc1nc2ccc(-c3cc(N)nc(N)c3)nc2n1C(C)(C)c1ccccc1
2. Cc1nc2ccc(-c3cc(N)nc(N)c3)nc2n1CC1CCCCC1
3. COc1cccc(CCn2c(C)nc3ccc(-c4cc(N)nc(N)c4)nc32)c1
4. Cc1nc2ccc(-c3cc(N)nc(N)c3)nc2n1Cc1ccc(C#N)cc1

output:
[0.149, 0.002, 0.002, 0.154]

* * *

molecular target: His-TEV-DYRK1A Kinase domain (aa127-485) (Homo sapiens); construct: His-TEV-DYRK1A Kinase domain (aa127-485); His tag (N); TEV protease cleavage site (N); test: Kinase ADP assay (ADP Hunter), DYRK1A kinase domain; assay type: biochemical; conditions: 20 μM ATP
attribute-measured: IC50 (µM)
One number for each entry, in µM.

[[record]]
compound = "CCCn1c(C)nc2ccc(-c3cc(N)nc(N)c3)nc21"
value_observed = 0.01


For every item below, please supply its IC50.
1. CCCCn1c(C)nc2ccc(-c3cc(N)nc(NC(=O)c4ccccc4Cl)c3)nc21
2. Cc1nc2ccc(-c3cc(N)nc(N)c3)nc2n1C[C@H](C)Oc1ccccc1 (single isomer, unassigned)

output:
[0.303, 0.012]

* * *

target: DYRK1A (Homo sapiens, UniProt Q13627); experiment: Kinase TR-FRET assay, DYRK1A; type: biochemical; parameters: full-length, wild-type human DYRK1A (NM_001396) with an HA tag; expressed in transfected cells; host or cells: human U2-OS osteosarcoma cells, transient transfection of a pcDNA3.1 plasmid; conditions: full-length human kinase, 10 μM ATP
Hi there, I'd appreciate the recorded IC50 for every entry that follows.
Numbers only, in µM.

Field: example entries. Status: answers known.
[[record]]
compound = "Cc1nc2ccc(-c3cc(N)nc(N)c3)nc2n1CCC(C)C"
assayed_target = "DYRK1A (Homo sapiens, UniProt Q13627)"
attribute_measured = "IC50"
value_observed = 0.003

[[record]]
compound = "CCCCCCn1c(C)nc2ccc(-c3cc(N)nc(N)c3)nc21"
assayed_target = "DYRK1A (Homo sapiens, UniProt Q13627)"
attribute_measured = "IC50"
value_observed = 0.003

[[record]]
compound = "CCCCn1c(C)nc2ccc(-c3cc(N)nc(N)c3)nc21"
assayed_target = "DYRK1A (Homo sapiens, UniProt Q13627)"
attribute_measured = "IC50"
value_observed = 0.002

[[record]]
compound = "CCc1nc2ccc(-c3cc(N)nc(N)c3)nc2n1C1Cc2ccccc2C1"
assayed_target = "DYRK1A (Homo sapiens, UniProt Q13627)"
attribute_measured = "IC50"
value_observed = 0.008

[[record]]
compound = "Cc1nc2ccc(-c3cc(N)nc(N)c3)nc2n1CC1CCOC1 (stereo not drawn)"
assayed_target = "DYRK1A (Homo sapiens, UniProt Q13627)"
attribute_measured = "IC50"
value_observed = 0.029

[[record]]
compound = "Cc1cc([C@@H](C)n2c(C)nc3ccc(-c4cc(N)nc(N)c4)nc32)ccn1"
assayed_target = "DYRK1A (Homo sapiens, UniProt Q13627)"
attribute_measured = "IC50"
value_observed = 0.095


For every item below, please supply its IC50.
1. Cc1nc2ccc(-c3cc(N)nc(N)c3)nc2n1[C@H](C)c1ccnc(F)c1
2. COc1cc(Cn2c(C)nc3ccc(-c4cc(N)nc(N)c4)nc32)ccn1
3. N#Cc1nc2ccc(-c3cc(N)nc(N)c3)nc2n1CCOc1ccccc1
4. Cc1nc2ccc(-c3cc(N)nc(N)c3)nc2n1C
5. CCCCn1c(C)nc2ccc(-c3cc(N)nc(NC(=O)Cc4ccccc4)c3)nc21
6. Cc1nc2ccc(-c3cc(N)nc(N)c3)nc2n1CC(F)F

output:
0.01
0.01
0.018
0.015
0.013
0.003

* * *

target: DYRK1B (Homo sapiens, UniProt Q9Y463); construct: full-length human kinases from Carna Biosciences; purchased Carna Biosciences 04-131; test: Kinase TR-FRET assay, DYRK1B; format: biochemical; details: full-length human kinase, 10 μM ATP
Sequence (Q9Y463 whole entry): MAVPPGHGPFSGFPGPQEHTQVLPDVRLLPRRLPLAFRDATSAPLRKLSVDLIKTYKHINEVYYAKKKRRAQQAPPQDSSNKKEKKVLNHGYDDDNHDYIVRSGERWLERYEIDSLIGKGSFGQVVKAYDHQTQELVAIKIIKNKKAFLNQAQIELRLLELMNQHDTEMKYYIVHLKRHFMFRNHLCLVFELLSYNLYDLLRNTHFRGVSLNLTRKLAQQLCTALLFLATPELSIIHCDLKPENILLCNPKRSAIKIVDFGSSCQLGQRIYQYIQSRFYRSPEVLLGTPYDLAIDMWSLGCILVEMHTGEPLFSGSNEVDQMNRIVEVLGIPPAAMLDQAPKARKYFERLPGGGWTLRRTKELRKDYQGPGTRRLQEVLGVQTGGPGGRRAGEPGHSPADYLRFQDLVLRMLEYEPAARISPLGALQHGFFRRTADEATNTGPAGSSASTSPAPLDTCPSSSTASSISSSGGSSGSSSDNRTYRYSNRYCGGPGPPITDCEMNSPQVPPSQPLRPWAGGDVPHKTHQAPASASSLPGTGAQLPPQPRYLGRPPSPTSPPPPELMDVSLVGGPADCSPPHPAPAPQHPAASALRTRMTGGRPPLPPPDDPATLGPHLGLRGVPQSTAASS
attribute-measured: log10(IC50) (log10 of the value in µM)
A value of 2 here means IC50 of 100 in µM, since values are log10.

[[record]]
compound = "Cc1nc2ccc(-c3cc(N)nc(N)c3)nc2n1C1CC(F)C1 (centres unmarked)"
assayed_target = "DYRK1B (Homo sapiens, UniProt Q9Y463)"
value_observed = -2.30

[[record]]
compound = "CCCc1nc2ccc(-c3cc(N)nc(N)c3)nc2n1C1CCCC1"
assayed_target = "DYRK1B (Homo sapiens, UniProt Q9Y463)"
value_observed = -1.17

[[record]]
compound = "Cc1nc2ccc(-c3cc(N)nc(N)c3)nc2n1Cc1ccc(F)cc1"
assayed_target = "DYRK1B (Homo sapiens, UniProt Q9Y463)"
value_observed = -1.26

[[record]]
compound = "Cc1nc2ccc(-c3cc(N)nc(N)c3)nc2n1CCOc1cccc(Cl)c1"
assayed_target = "DYRK1B (Homo sapiens, UniProt Q9Y463)"
value_observed = -2.00

[[record]]
compound = "Cc1nc2ccc(-c3cc(N)nc(N)c3)nc2n1CCc1cccc(C(F)(F)F)c1"
assayed_target = "DYRK1B (Homo sapiens, UniProt Q9Y463)"
value_observed = -2.10

[[record]]
compound = "Cc1nc2ccc(-c3cc(N)nc(N)c3)nc2n1CC(F)F"
assayed_target = "DYRK1B (Homo sapiens, UniProt Q9Y463)"
value_observed = -2.22

[[record]]
compound = "Cc1nc2ccc(-c3cc(N)nc(N)c3)nc2n1CCc1ccc(Cl)cc1Cl"
assayed_target = "DYRK1B (Homo sapiens, UniProt Q9Y463)"
value_observed = -2.52

[[record]]
compound = "Cc1nc2ccc(-c3cc(N)nc(N)c3)nc2n1CCOc1cccc(Cl)n1"
assayed_target = "DYRK1B (Homo sapiens, UniProt Q9Y463)"
value_observed = -2.30


For every item below, please supply its log10(IC50).
1. Cc1nc2ccc(-c3cc(N)nc(N)c3)nc2n1CCOc1ccccn1
2. Cc1nc2ccc(-c3cc(N)nc(N)c3)nc2n1CCC1CCCC1
3. Cc1nc2ccc(-c3cc(N)nc(N)c3)nc2n1CCC1CCCCC1

output:
1: -2.10; 2: -2.15; 3: -2.10

* * *

target: His-TEV-DYRK1A Kinase domain (aa127-485) (Homo sapiens); construct: His-TEV-DYRK1A Kinase domain (aa127-485); His tag (N); TEV protease cleavage site (N); experiment: Kinase ADP assay (ADP Hunter), DYRK1A kinase domain; format: biochemical; settings: 20 μM ATP
Hi there, I'd appreciate the recorded IC50 for every entry that follows.
Numbers only, in µM.

For every item below, please supply its IC50.
1. Cc1nc2ccc(-c3cc(N)nc(N)c3)nc2n1CCOc1c(F)cccc1F
2. Cc1nc2ccc(-c3cc(N)nc(N)c3)nc2n1CCOc1ccccc1
3. Cc1nc2ccc(-c3cc(N)nc(N)c3)nc2n1CCc1ccc2c(c1)OCO2
4. Cc1nc2ccc(-c3cc(N)nc(N)c3)nc2n1C1CCN(C(=O)C(C)C)CC1

output:
1. 0.007
2. 0.01
3. 0.009
4. 0.008
